These measurements were taken from ChEMBL document CHEMBL1201862.

Test system: U-251
experimental_details: NCI tumour cell line growth inhibition, 48 h
Active and inactive are the calls of the source. Cut-off read from the data, not from the text of the source: active = GI50 up to about 1.1 µM and inactive = higher.
Your answer must be one of the following: active, inactive

Reference set, count: 10
molecule	study_target	class_name
O=CN1CCN(c2ccc3ccc(O)nc3n2)CC1	U-251	inactive
COC(=O)/C=C/c1ccccc1N=[S@](C)(=O)c1ccc(C)cc1	U-251	inactive
CCN(CC(=O)O)C(=O)c1cccnc1	U-251	inactive
C/C1=C\C=C(\C(C)C)CC/C(C(=O)O)=C\CC/C(C)=C/CC1	U-251	inactive
Cc1ccc(NC(=O)C(=O)C2NC(=S)NC2=O)c([N+](=O)[O-])c1 (stereo not given)	U-251	inactive
COc1cccc(C2c3cc4c(cc3OC(NNC(N)=O)C2C)OCO4)c1O (stereo not given)	U-251	active
COC(=O)c1cnc(Cl)cn1	U-251	inactive
CC(=O)NC1=C(C)C(=O)c2c(nc3n2CC[C@H]3OC(C)=O)C1=O	U-251	inactive
C=CCSc1nnc2cc(CN3CCCC3)c(-c3ccc(Cl)cc3)nn12	U-251	inactive
Cc1nc(C)c(C(=O)NNC(=O)C[N+](C)(C)C)cc1C(=O)NNC(=O)C[N+](C)(C)C	U-251	inactive

Now take the following molecule into account.
# fetch the recorded call for COC1=C(OC)C(=O)C(Cc2c(-c3ccccc3)nc3sc(Cl)cn23)=C(C)C1=O here
inactive
